# system.tested: p53‐hDM2 interaction (Homo sapiens, UniProt Q00987)
# Sequence (Q00987 whole entry): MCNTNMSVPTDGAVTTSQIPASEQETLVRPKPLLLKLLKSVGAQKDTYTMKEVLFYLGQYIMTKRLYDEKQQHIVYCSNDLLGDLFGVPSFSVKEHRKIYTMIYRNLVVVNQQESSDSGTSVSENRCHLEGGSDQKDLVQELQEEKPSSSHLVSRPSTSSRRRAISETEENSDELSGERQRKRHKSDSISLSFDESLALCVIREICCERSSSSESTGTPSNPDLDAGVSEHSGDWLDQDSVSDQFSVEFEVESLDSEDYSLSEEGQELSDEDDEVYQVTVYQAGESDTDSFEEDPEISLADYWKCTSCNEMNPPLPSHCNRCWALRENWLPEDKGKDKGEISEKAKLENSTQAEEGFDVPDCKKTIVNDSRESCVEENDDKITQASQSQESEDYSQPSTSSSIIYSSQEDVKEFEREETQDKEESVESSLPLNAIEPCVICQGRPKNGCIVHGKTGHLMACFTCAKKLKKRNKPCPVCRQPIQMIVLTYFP
# protocol.summary: TR-FRET
# Assay type: binding
# experimental.context: IC50±SEM hDM2, 9-point curves in duplicates
pIC50: −log10 of the molar value. *1 amine or outer side, *2 acyl side, *3 side chain or, on linkers, in order; H or OH if unused. Where a SMILES comes first, the peptide text is derived from it. Bridges are numbered along the chain shown (N, C = ends). The star is where a group is joined. X1 = CC(C)C[C@@H](CNC(=O)N1C[C@@H](SCCCCCC[*:1])C[C@H]1C(N)=O)NC(=O)NC[C@H](CC(C)C)N[*:2]; X4 = CC(C)C[C@@H](CNC(=O)N1CCC[C@H]1C(N)=O)NC(=O)NC[C@H](CC(C)C)N*; X2 = CC(C)C[C@@H](CNC(=O)N[C@@H](C)CNC(=O)N1CCC[C@H]1C(N)=O)N*
# Lookup of reported pIC50 keyed by entry
observed.property: pIC50

| compound | observed.measurement |
| --- | --- |
| CC(C)C[C@@H](CNC(=O)N[C@@H](C)CNC(=O)N1CCC[C@H]1C(N)=O)NC(=O)[C@H](C)NC(=O)[C@H](Cc1c[nH]c2ccccc12)NC(=O)[C@H](Cc1ccc(O)cc1)NC(=O)[C@H](CCC(=O)O)NC(=O)[C@H](C)NC(=O)[C@H](Cc1ccccc1)NC(=O)[C@H](CO)NC(=O)[C@@H](N)[C@@H](C)O [Compound 3] (H-TSFAEYWA-X2) | 7.27 |
| CC(=O)N[C@@H](CCCCN)C(=O)N[C@H](C(=O)N[C@@H](Cc1ccccc1)C(=O)N[C@H]1CSCCCCCCS[C@H]2C[C@@H](C(N)=O)N(C2)C(=O)NC[C@H](CC(C)C)NC(=O)NC[C@H](CC(C)C)NC(=O)[C@H](C)NC(=O)[C@H](Cc2c[nH]c3ccccc23)NC(=O)[C@H](Cc2ccc(O)cc2)NC(=O)[C@H](CCC(=O)O)NC1=O)[C@@H](C)O [Compound 10 a] (Ac-KTFCEYWA; linker 4-C via X1) | 8.52 |
| CC(C)C[C@H]1CNC(=O)N2C[C@H](C[C@H]2C(N)=O)SCCCCCCSC[C@H](NC(=O)[C@H](Cc2ccccc2)NC(=O)[C@H](CO)NC(=O)[C@@H](N)[C@@H](C)O)C(=O)N[C@@H](CCC(=O)O)C(=O)N[C@@H](Cc2ccc(O)cc2)C(=O)N[C@@H](Cc2c[nH]c3ccccc23)C(=O)N[C@@H](C)C(=O)N[C@@H](CC(C)C)CNC(=O)N1 [Compound 8 a] (H-TSFCEYWA; linker 4-C via X1) | 8.72 |
| CC(C)C[C@@H](CNC(=O)N1CCC[C@H]1C(N)=O)NC(=O)NC[C@H](CC(C)C)NC(=O)[C@H](C)NC(=O)[C@H](Cc1c[nH]c2ccccc12)NC(=O)[C@H](Cc1ccc(O)cc1)NC(=O)[C@H](CCC(=O)O)NC(=O)[C@H](C)NC(=O)[C@H](Cc1ccccc1)NC(=O)[C@H](CO)NC(=O)[C@@H](N)[C@@H](C)O [Compound 4] (H-TSFAEYWA-X4) | 8.21 |
